System: A549
ASSAY EXPLANATION: relative viability (normalised to negative control = 1, bortezomib = 0) (fraction); higher = less cytotoxic
RECORDED CONDITIONS: inflammatory serum-free RHB-A with cytokines + LPS; 5 d + 24 h CellTiter-Blue; compound 300 nM; GSK126 pretreatment: 5 uM GSK126
Where a name gives a salt, the structure may show the parent alone.
Answer each item with its documented relative viability.

Give reported relative viability for CCN(CC)CCNC(=O)c1c(C)[nH]c(/C=C2\C(=O)Nc3ccc(F)cc32)c1C [Sunitinib; Sunitinib Malate; Sunitinib (free base)] (A549)
0.896

Give reported relative viability for O=c1[nH]c(=O)n([C@H]2C[C@H](O)[C@@H](CO)O2)cc1F [Floxuridine] (A549)
0.903

Give reported relative viability for O=C(CCCCCCC(=O)Nc1ccccc1)NO [Vorinostat; SAHA] (A549)
0.891

Give reported relative viability for Nc1ncn([C@@H]2O[C@H](CO)[C@@H](O)[C@H]2O)c(=O)n1 [Azacitidine; 5-azacytidine] (A549)
0.903

Give reported relative viability for CC/C(=C(\c1ccccc1)c1ccc(OCCN(C)C)cc1)c1ccccc1 [Tamoxifen citrate] (A549)
0.909

###

Answer each item with its documented relative viability.
Test system: A549
ASSAY EXPLANATION: relative viability (normalised to negative control = 1, bortezomib = 0) (fraction); higher = less cytotoxic
RECORDED CONDITIONS: inflammatory serum-free RHB-A with cytokines + LPS; 5 d + 24 h CellTiter-Blue; compound 30 nM; GSK126 pretreatment: 5 uM GSK126
Lab note: record the figure alone, no unit after it.

Please list relative viability recorded for the compound CO[C@H]1C[C@@H]2CC[C@@H](C)[C@@](O)(O2)C(=O)C(=O)N2CCCC[C@H]2C(=O)O[C@H]([C@H](C)C[C@@H]2CC[C@@H](OCCO)[C@H](OC)C2)CC(=O)[C@H](C)/C=C(\C)[C@@H](O)[C@@H](OC)C(=O)[C@H](C)C[C@H](C)/C=C/C=C/C=C/1C [Everolimus; Everolimus(RAD001)]
0.647

Please list relative viability recorded for the compound Cn1c(=O)c(F)c(Nc2ccc(I)cc2F)c2c(=O)n(C[C@@H](O)CO)cnc21
0.156

Please list relative viability recorded for the compound O=NN(CCCl)C(=O)NC1CCCCC1 [Lomustine, CCNU; Lomustine]
0.967

Please list relative viability recorded for the compound Cc1[nH]c(/C=C2\C(=O)Nc3ccc(S(=O)(=O)N(C)c4cccc(Cl)c4)cc32)c(C)c1C(=O)N1CCN(C)CC1
0.89

Please list relative viability recorded for the compound C#CCC(Cc1cnc2nc(N)nc(N)c2n1)c1ccc(C(=O)N[C@@H](CCC(=O)O)C(=O)O)cc1 (stereo partly drawn) [pralatrexate]
0.878

Please list relative viability recorded for the compound Cc1cc(Nc2cc(N3CCN(C)CC3)nc(Sc3ccc(NC(=O)C4CC4)cc3)n2)n[nH]1
0.766

Please list relative viability recorded for the compound Nc1ccn([C@@H]2O[C@H](CO)[C@@H](O)[C@@H]2O)c(=O)n1
0.833

Please list relative viability recorded for the compound Cc1cc(C(=O)NOCCO)c(Nc2ccc(I)cc2F)n(C)c1=O
0.137

###

Tested on: A549
ASSAY EXPLANATION: relative viability (normalised to negative control = 1, bortezomib = 0) (fraction); higher = less cytotoxic
RECORDED CONDITIONS: inflammatory serum-free RHB-A with cytokines + LPS; 5 d + 24 h CellTiter-Blue; compound 30 nM; GSK126 pretreatment: none (vehicle)
Where a name gives a salt, the structure may show the parent alone.
Answer each item with its documented relative viability.
Lab note: record the figure alone, no unit after it.

Please list relative viability recorded for the compound Nc1nccc(Oc2ccc(NC(=O)c3c[nH]cc(-c4ccc(F)cc4)c3=O)cc2F)c1Cl
0.882

Please list relative viability recorded for the compound COc1ccc(S(=O)(=O)N(C(C)=O)c2ccccc2/C=C/c2cc[n+]([O-])cc2)cc1
0.914

Please list relative viability recorded for the compound C=CC(=O)Nc1cccc(Oc2nc(Nc3ccc(N4CCN(C)CC4)cc3OC)ncc2Cl)c1
0.897

Please list relative viability recorded for the compound FC(F)c1nc2ccccc2n1-c1nc(N2CCOCC2)nc(N2CCOCC2)n1
0.738

Please list relative viability recorded for the compound CS(=O)(=O)c1ccc(C(=O)Nc2ccc(Cl)c(-c3ccccn3)c2)c(Cl)c1 [Vismodegib]
0.952

Please list relative viability recorded for the compound COc1cc(N2CCC(N3CCN(C)CC3)CC2)ccc1Nc1ncc(Cl)c(Nc2ccccc2S(=O)(=O)C(C)C)n1
0.605

Please list relative viability recorded for the compound CO[C@H]1C[C@@H]2CC[C@@H](C)[C@@](O)(O2)C(=O)C(=O)N2CCCC[C@H]2C(=O)O[C@H]([C@H](C)C[C@@H]2CC[C@@H](O)[C@H](OC)C2)CC(=O)[C@H](C)/C=C(\C)[C@@H](O)[C@@H](OC)C(=O)[C@H](C)C[C@H](C)/C=C/C=C/C=C/1C [Sirolimus; RAPAMYCIN; Rapamycin(Sirolimus); Rapamycin]
0.588

Please list relative viability recorded for the compound COc1cc(Nc2c(C#N)cnc3cc(OCCCN4CCN(C)CC4)c(OC)cc23)c(Cl)cc1Cl [Bosutinib(SKI-606)]
0.991

Please list relative viability recorded for the compound Cc1cccc(-c2[nH]c(C(C)(C)C)nc2-c2ccc3nccnc3c2)n1
0.828

Please list relative viability recorded for the compound CCCNC(=O)Nc1ccc(Oc2ncnc3cc(OC)c(OC)cc23)cc1Cl
0.752

Please list relative viability recorded for the compound O=C(NOCC(O)CO)c1cc(Br)c(F)c(F)c1Nc1ccc(I)cc1F (stereo not given)
0.492

Please list relative viability recorded for the compound NCC(=O)CCC(=O)O [Aminolevulinic acid hydrochloride; Aminolevulinic acid]
0.985

Please list relative viability recorded for the compound CN(Cc1cnc2nc(N)nc(N)c2n1)c1ccc(C(=O)N[C@@H](CCC(=O)O)C(=O)O)cc1 [Methotrexate hydrate; Methotrexate]
0.84

Please list relative viability recorded for the compound Cc1c(NC(=O)OC[C@@H]2COCCN2)cn2ncnc(Nc3ccc4c(cnn4Cc4cccc(F)c4)c3)c12
0.802

Please list relative viability recorded for the compound COc1cccc(-c2cc(=O)c3ccccc3o2)c1N
0.794

Please list relative viability recorded for the compound COc1cccc2c1C(=O)c1c(O)c3c(c(O)c1C2=O)C[C@@](O)(C(C)=O)C[C@@H]3O[C@H]1C[C@H](N)[C@H](O)[C@H](C)O1 [Daunorubicin hydrochloride; Daunorubicin HCl]
0.765

Please list relative viability recorded for the compound COc1cc2nccc(Oc3ccc(NC(=O)Nc4ccc(F)cc4F)c(F)c3)c2cc1OC
0.832

Please list relative viability recorded for the compound O=NN(CCCl)C(=O)NCCCl [Carmustine]
0.858

Please list relative viability recorded for the compound COc1cc2c(Nc3ccc(NC(=O)c4ccccc4)cc3)ncnc2cc1OCCCN1CCOCC1
0.992

Please list relative viability recorded for the compound CC(C)(C)c1cnc(CSc2cnc(NC(=O)C3CCNCC3)s2)o1
0.811

Please list relative viability recorded for the compound Nc1nc(Cl)nc2c1ncn2[C@@H]1O[C@H](CO)[C@@H](O)[C@@H]1F [Clofarabine]
0.693

Please list relative viability recorded for the compound CCN(CC)CCCC(C)Nc1c2ccc(Cl)cc2nc2ccc(OC)cc12 (stereo not given)
0.847

Please list relative viability recorded for the compound COc1cccc2c1C(=O)c1c(O)c3c(c(O)c1C2=O)C[C@@](O)(C(=O)CO)C[C@@H]3O[C@H]1C[C@H](N)[C@H](O)[C@H](C)O1 [Doxorubicin hydrochloride; 4'-Epiadriamycin; Doxorubicin HCl]
0.974

Please list relative viability recorded for the compound O=C(CCCCCCC(=O)Nc1ccccc1)NO [Vorinostat; SAHA]
0.868

Please list relative viability recorded for the compound Cc1nc(N)sc1-c1ccnc(Nc2ccc(N3CCOCC3)cc2)n1
0.913
